Hey, just so you know, these numbers are from the supplement of paper PMC12645437.

- System: T1, CRBN, Q96SW2;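 also: pooled lentiviral library of zinc finger degron-EGFP fusions in mCherry-positive Jurkat cells, FACS-sorted after compound exposure, with degron abundance counted by next-generation sequencing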
- T1 chain: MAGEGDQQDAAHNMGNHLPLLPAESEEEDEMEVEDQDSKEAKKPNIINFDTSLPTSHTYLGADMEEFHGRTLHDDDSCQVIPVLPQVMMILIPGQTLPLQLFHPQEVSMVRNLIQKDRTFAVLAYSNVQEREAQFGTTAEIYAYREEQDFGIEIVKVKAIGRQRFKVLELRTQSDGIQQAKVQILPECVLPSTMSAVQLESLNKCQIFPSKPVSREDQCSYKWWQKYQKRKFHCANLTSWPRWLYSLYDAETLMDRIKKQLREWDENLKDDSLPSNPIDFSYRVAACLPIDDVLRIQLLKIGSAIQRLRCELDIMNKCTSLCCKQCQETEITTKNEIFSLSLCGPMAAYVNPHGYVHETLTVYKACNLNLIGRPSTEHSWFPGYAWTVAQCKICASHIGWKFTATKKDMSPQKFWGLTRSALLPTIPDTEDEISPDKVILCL
- Measurement Protocol: log2 fold change of degron read counts, EGFP-low vs EGFP+ sorted cells (limma voom), compound-induced degradation; higher = more compound-induced degradation of the degron-EGFP fusion; degrons are variants of IKZF1/3 zinc finger 2; compound dose not given here
- Test Context: Jurkat; 18 h; compound: compound 33 (diphenyl IMiD analogue)
In all, about 8,300 sequences were measured (“log2 fold change of degron read counts, EGFP-low vs EGFP+ sorted cells (limma voom), compound-induced degradation”: median about -1.1, highest 2% from about 3.2 on). The entries come from a sample that favours the highest values as a whole.

{"Sequence Record": "FCCNQCGREFTQKGNLLRHIKL [46F_47C_49N_50Q_52G_53R_54E_55F_67L_, Q9UKT9]", "log2 fold change of degron read counts": -3.16}
{"Sequence Record": "LLCNQCGFACTQKGNLLRHIKL [46L_47L_49N_50Q_52G_53F_54A_55C_67L_, Q9UKT9]", "log2 fold change of degron read counts": -2.27}
{"Sequence Record": "FYCEICGHEFTQKGNLLRHIKL [46F_47Y_49E_50I_52G_53H_54E_55F_67L_, Q9UKT9]", "log2 fold change of degron read counts": -1.81}
{"Sequence Record": "FYCDVCGATFTQKGNLLRHIKL [46F_47Y_49D_50V_52G_53A_54T_55F_67L_, Q9UKT9]", "log2 fold change of degron read counts": 0.691}
